# assay_summary: NCI Yeast Anticancer Drug Screen. Data for the rad52 strain (AID 147);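 further: 0% = growth of vehicle-treated control cultures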
# test_parameters: S. cerevisiae rad52 mutant growth inhibition; at 100.0 µM
This is part of a sample that, as a whole, favours compounds with a hit. Of some 79,000 tested, about 15% had one in any assay. Calls of active or inactive are those of the source. No stated cut-off is given here; in the data, active means growth inhibition above about 70%; inactive means the rest. Residues, ends and D or L forms follow the SMILES beside them. *: point of attachment. CH2Cl = ClC*
Outcome codes: true (1) for active, false (0) for inactive

molecule: Nc1nc(N)c2cc(Sc3ccc4ccccc4c3)ccc2n1
answer_label: true (1)
//
molecule: CCC(NC(C)c1ccccc1)C(=O)c1ccc(OCc2ccccc2)c(OCc2ccccc2)c1 (stereo not given)
answer_label: false (0)
//
molecule: [N-]=[N+]=NC(c1ccccc1)(c1ccccc1)c1ccccc1
answer_label: true (1)
//
molecule: NNC(=S)Nc1cccc(Cl)c1
answer_label: true (1)
//
molecule: O=C1c2c(O)cccc2-c2nn(CCNCCO)c3ccc(NCCNCCO)c1c23
answer_label: true (1)
//
molecule: Nc1nc(F)nc2c1ncn2C1OC(COP(=O)(O)O)C(O)C1O (stereo not given)
answer_label: false (0)
//
molecule: CC(=O)NC(CC(C)C)C(=O)NC(Cc1ccccc1)C(=O)CCl (stereo not drawn) (Ac-Leu-Phe-CH2Cl; configuration not given here)
answer_label: true (1)
//
molecule: ClCCn1c(CCl)nc2ccc(Cl)cc21
answer_label: true (1)
//
molecule: O=C1c2cccc3cc([N+](=O)[O-])cc(c23)C(=O)N1CCN1CCCC1
answer_label: true (1)
//
molecule: CCCCCCCCCCCCCCCCNC(=O)/C(=C\c1ccc(Cl)c(Cl)c1)NC(=O)c1ccccc1
answer_label: true (1)
